Measured values drawn from the kinase profiling compilation of Christmann-Franck et al. (2016) for this set.

- Tested target: ABL1 (human)
- Test description: radiometric filter-binding kinase assay
- Experimental conditions: compound 10.0 µM
Observation type: residual activity (%)

>  <Compound>
O=S(=O)(c1ccc(F)c2nonc12)N1CCN(c2ncc(C(F)(F)F)cc2Cl)CC1

>  <Observation type>
residual activity

>  <Numeric value>
111

$$$$
>  <Compound>
O=C(NOCC(O)CO)c1ccc(F)c(F)c1Nc1ccc(I)cc1Cl (configuration not stated)

>  <Observation type>
residual activity

>  <Numeric value>
107

$$$$
>  <Compound>
CCn1c(-c2nonc2N)nc2cncc(CNC3CCNCC3)c21

>  <Observation type>
residual activity

>  <Numeric value>
96

$$$$
>  <Compound>
CNc1nc(-c2ccc3c(N)n[nH]c3c2)cc(N2C[C@@H](C(=O)NC3CCCCC3)CC[C@H]2C)n1

>  <Observation type>
residual activity

>  <Numeric value>
100

$$$$
>  <Compound>
NC(=O)c1c(NC(=O)C2CC2)sc2c1CCCC2

>  <Observation type>
residual activity

>  <Numeric value>
82

$$$$
>  <Compound>
CCOC(=O)c1ccc(N2NC(=O)/C(=C/c3ccc([N+](=O)[O-])o3)C2=O)cc1

>  <Observation type>
residual activity

>  <Numeric value>
107

$$$$
>  <Compound>
NCC(=O)Nc1ccc(-n2nc(C(F)(F)F)cc2-c2ccc3c(ccc4ccccc43)c2)cc1

>  <Observation type>
residual activity

>  <Numeric value>
103

$$$$

###

- Tested target: MST4 (human) (UniProt Q9P289)
- Sequence (Q9P289 whole entry, looked up): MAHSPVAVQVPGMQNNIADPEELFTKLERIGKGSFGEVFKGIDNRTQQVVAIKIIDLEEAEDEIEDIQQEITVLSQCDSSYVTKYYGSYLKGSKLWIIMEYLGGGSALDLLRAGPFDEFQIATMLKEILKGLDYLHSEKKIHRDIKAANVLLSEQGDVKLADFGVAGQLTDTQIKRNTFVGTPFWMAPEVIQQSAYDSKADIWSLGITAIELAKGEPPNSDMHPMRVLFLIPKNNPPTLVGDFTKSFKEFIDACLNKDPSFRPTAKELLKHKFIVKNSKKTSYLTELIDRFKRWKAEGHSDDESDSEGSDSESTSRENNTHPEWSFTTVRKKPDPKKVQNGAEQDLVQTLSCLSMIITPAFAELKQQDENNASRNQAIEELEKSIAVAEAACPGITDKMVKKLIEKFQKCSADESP
- Test description: radiometric filter-binding kinase assay
- Experimental conditions: compound 0.1 µM
Items are presented alongside their recorded residual activity.
Observation type: residual activity (%)

>  <Compound>
Cn1c(=O)c2c(ncn2C)n(C)c1=O

>  <Tested target>
MST4 (human) (UniProt Q9P289)

>  <Numeric value>
96

$$$$
>  <Compound>
O=C(NCCCNc1nc(Nc2cccc(CN3CCOCC3)c2)ncc1C1CC1)C1CCC1

>  <Tested target>
MST4 (human) (UniProt Q9P289)

>  <Numeric value>
87

$$$$
>  <Compound>
COc1cc(O)c2c(c1)/C=C/C[C@H](O)[C@H](O)C(=O)/C=C\C[C@H](C)OC2=O

>  <Tested target>
MST4 (human) (UniProt Q9P289)

>  <Numeric value>
129

$$$$
>  <Compound>
O=C(Nc1nc2cc(C(F)(F)F)cc(NC3CC3)n2n1)c1cccnc1

>  <Tested target>
MST4 (human) (UniProt Q9P289)

>  <Numeric value>
99

$$$$
>  <Compound>
NC(=O)c1cc2c(-c3cccc(-c4ccccc4)c3)cnc(N)c2s1

>  <Tested target>
MST4 (human) (UniProt Q9P289)

>  <Numeric value>
102

$$$$
>  <Compound>
COc1cc(O)c2c(c1)[C@H]1OC1C[C@H](O)[C@H](O)C(=O)/C=C\C[C@H](C)OC2=O (some centres not stated)

>  <Tested target>
MST4 (human) (UniProt Q9P289)

>  <Numeric value>
106

$$$$
>  <Compound>
O=C(O)c1ccc(-c2c[nH]c3ncc(-c4ccccc4)cc23)cc1C1CCCC1

>  <Tested target>
MST4 (human) (UniProt Q9P289)

>  <Numeric value>
81

$$$$

###

- Tested target: CSNK2A1 (human) (UniProt P68400)
- Sequence (P68400 whole entry, looked up): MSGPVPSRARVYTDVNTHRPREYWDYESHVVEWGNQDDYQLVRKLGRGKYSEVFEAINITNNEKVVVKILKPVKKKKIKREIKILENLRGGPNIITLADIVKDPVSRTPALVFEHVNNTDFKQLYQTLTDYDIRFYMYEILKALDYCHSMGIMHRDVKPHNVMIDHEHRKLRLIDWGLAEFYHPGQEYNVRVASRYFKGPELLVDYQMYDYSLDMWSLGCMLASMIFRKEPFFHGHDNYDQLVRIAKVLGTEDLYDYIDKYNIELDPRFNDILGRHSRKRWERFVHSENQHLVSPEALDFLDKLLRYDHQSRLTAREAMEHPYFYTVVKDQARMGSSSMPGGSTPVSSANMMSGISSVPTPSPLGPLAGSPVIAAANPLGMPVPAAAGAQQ
- Test description: radiometric filter-binding kinase assay
- Experimental conditions: compound 0.1 µM

>  <Structure notation>
CN1CCN(CCOc2cc(OC3CCOCC3)c3c(Nc4c(Cl)ccc5c4OCO5)ncnc3c2)CC1

>  <Unit spec>
%

>  <residual activity>
112

$$$$
>  <Structure notation>
NC1(c2ccc(-c3nc4ccn5c(=O)[nH]nc5c4cc3-c3ccccc3)cc2)CCC1

>  <Unit spec>
%

>  <residual activity>
104

$$$$
>  <Structure notation>
Cc1ccc(Sc2cnc(Nc3cccc(Br)n3)s2)cc1C(=O)N1CCN(C(=O)CN)CC1

>  <Unit spec>
%

>  <residual activity>
119

$$$$
>  <Structure notation>
O=C(NCCCNc1nc(Nc2cccc(CN3CCOCC3)c2)ncc1C1CC1)C1CCC1

>  <Unit spec>
%

>  <residual activity>
86

$$$$
>  <Structure notation>
C=CC(=O)N1CCC[C@@H](n2nc(-c3ccc(Oc4ccccc4)cc3)c3c(N)ncnc32)C1

>  <Unit spec>
%

>  <residual activity>
104

$$$$
>  <Structure notation>
O=C(N[C@@H](COc1ccc2[nH]c(=O)[nH]c2c1)c1ccccc1)c1cccn(Cc2ccc(F)c(F)c2)c1=O

>  <Unit spec>
%

>  <residual activity>
111

$$$$
>  <Structure notation>
CNc1nc(-c2ccc3c(N)n[nH]c3c2)cc(N2C[C@@H](C(=O)NC3CCCCC3)CC[C@H]2C)n1

>  <Unit spec>
%

>  <residual activity>
104

$$$$
>  <Structure notation>
CCn1c(-c2nonc2N)nc2cncc(CNC3CCNCC3)c21

>  <Unit spec>
%

>  <residual activity>
71

$$$$
>  <Structure notation>
O=C(Nc1nc2cc(C(F)(F)F)cc(NC3CC3)n2n1)c1cccnc1

>  <Unit spec>
%

>  <residual activity>
127

$$$$
>  <Structure notation>
COc1ccc(-n2ncc3cnc(Nc4cc(OC)c(OC)c(OCCCN5CCN(C)CC5)c4)nc32)cc1

>  <Unit spec>
%

>  <residual activity>
33

$$$$
